Provenance of the data: ChEMBL document CHEMBL1135989

Target: UniProt Q7TSF2
Sequence (Q7TSF2 whole entry): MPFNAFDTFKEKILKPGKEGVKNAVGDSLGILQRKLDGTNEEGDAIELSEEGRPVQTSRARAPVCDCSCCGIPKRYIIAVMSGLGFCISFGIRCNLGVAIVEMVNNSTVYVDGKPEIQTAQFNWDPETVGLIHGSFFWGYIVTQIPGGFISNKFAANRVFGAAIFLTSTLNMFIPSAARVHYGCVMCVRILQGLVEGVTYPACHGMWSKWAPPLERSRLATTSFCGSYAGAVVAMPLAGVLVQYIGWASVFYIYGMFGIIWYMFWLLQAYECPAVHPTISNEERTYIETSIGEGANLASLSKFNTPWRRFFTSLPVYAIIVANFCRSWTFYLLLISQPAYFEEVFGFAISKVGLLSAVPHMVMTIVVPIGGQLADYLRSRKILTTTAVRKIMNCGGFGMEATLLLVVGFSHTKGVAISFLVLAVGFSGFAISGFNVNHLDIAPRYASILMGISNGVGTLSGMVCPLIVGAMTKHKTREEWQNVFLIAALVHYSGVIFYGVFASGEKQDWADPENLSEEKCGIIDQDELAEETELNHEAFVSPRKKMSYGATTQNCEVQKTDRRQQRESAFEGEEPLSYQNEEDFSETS
Experiment: Inhibition of Vesicular glutamate transporter (VGLUT) by the ability to block the uptake of 250 uM of [3,4-3H]-L-glutamate into synaptic vesicles isolated from rat forebrain at equimolar conc. (250 uM )
Assay type: functional
property.label: Glutamate uptake remaining (% of control)

{"mol.smiles": "COc1ccc(OC)c2c(C(=O)O)cc(C(=O)O)nc12", "result": "100%"}
{"mol.smiles": "O=C(O)c1cc(C(=O)O)c2c(F)cccc2n1", "result": "100%"}
{"mol.smiles": "O=C(O)c1cc(C(=O)O)c2cccc(-c3cccc4ccccc34)c2n1", "result": "70%"}
{"mol.smiles": "COc1cccc2c(C(=O)O)cc(C(=O)O)nc12", "result": "90%"}
{"mol.smiles": "O=C(O)c1cc(C(=O)O)c2cc3c(cc2n1)OCCO3", "result": "100%"}
{"mol.smiles": "O=C(O)c1cc(C(=O)O)c2cc(OCCCCCCO)ccc2n1", "result": "74%"}
{"mol.smiles": "O=C(O)c1cc(C(=O)O)c2cc3c(cc2n1)OCO3", "result": "100%"}
{"mol.smiles": "O=C(O)c1cc(C(=O)O)c2cc(OC3CCCCC3)ccc2n1", "result": "67%"}
{"mol.smiles": "O=C(O)c1cc(C(=O)O)c2ccccc2n1", "result": "100%"}
{"mol.smiles": "O=C(O)c1cc(C(=O)O)c2cc(O)ccc2n1", "result": "100%"}
{"mol.smiles": "O=C(O)c1cc(C(=O)O)c2cccc(C(=O)O)c2n1", "result": "100%"}
{"mol.smiles": "O=C(O)c1cc(C(=O)O)c2cc(CCc3ccccc3)ccc2n1", "result": "47%"}
{"mol.smiles": "O=C(O)c1cc(C(=O)O)c2cccc(F)c2n1", "result": "100%"}
{"mol.smiles": "O=C(O)c1cc(C(=O)O)c2cc(/C=C/c3ccc(-c4ccccc4)cc3)ccc2n1", "result": "37%"}
{"mol.smiles": "O=C(O)c1cc(C(=O)O)c2cc(/N=N/c3ccccc3)ccc2n1", "result": "31%"}
{"mol.smiles": "O=C(O)c1cc(C(=O)O)c2cc(Oc3ccccc3)ccc2n1", "result": "74%"}
{"mol.smiles": "O=C(O)c1cc(C(=O)O)c2c(Br)cccc2n1", "result": "100%"}
{"mol.smiles": "O=C(O)c1cc(C(=O)O)c2ccc(OCc3ccccc3)cc2n1", "result": "50%"}
{"mol.smiles": "O=C(O)c1cc(C(=O)O)c2cc(Br)ccc2n1", "result": "74%"}
{"mol.smiles": "O=C(O)c1cc(C(=O)O)c2cc(I)ccc2n1", "result": "87%"}
{"mol.smiles": "COc1cc2nc(C(=O)O)cc(C(=O)O)c2cc1OC", "result": "100%"}
{"mol.smiles": "O=C(O)c1cc(C(=O)O)c2cc(-c3ccccc3)ccc2n1", "result": "77%"}
{"mol.smiles": "O=C(O)c1cc(C(=O)O)c2ccc(-c3ccccc3)cc2n1", "result": "91%"}
{"mol.smiles": "O=C(O)c1cc(C(=O)O)c2cccc(O)c2n1", "result": "73%"}
{"mol.smiles": "COc1cc(OC)c2nc(C(=O)O)cc(C(=O)O)c2c1", "result": "100%"}
